- Assayed system: Mu-type opioid receptor (Homo sapiens)
- Assay: Antagonist activity at human recombinant mu opioid receptor assessed as reduction in DAMGO-induced […]-GTPgammaS binding
Quantity name: EC50

Using the record for C[N@+]1(CC2CC2)CC[C@]23c4c5ccc(O)c4O[C@H]2C(=O)CC[C@@]3(O)[C@H]1C5 [METHYLNALTREXONE] , state its measured EC50.
> 10 µM

====

Here, each record is paired with measured pKi data.
- Assayed system: Kappa-type opioid receptor (Mus musculus)
- Assay: Binding affinity to mouse kappa opioid receptor expressed in CHO cells in presence of U50488 incubated for 1.5 hrs by competitive radioligand binding assay
Reminder that pKi means the negative base-10 logarithm of the concentration expressed in mol/L.

[[record]]
structure_smiles = "O=C(CCc1cn[nH]c1)N[C@H]1CC[C@@]2(O)[C@H]3Cc4ccc(O)c5c4[C@@]2(CCN3CC2CC2)[C@H]1O5"
assayed_system = "Kappa-type opioid receptor (Mus musculus)"
recorded_number = 7.40


Using the record for O=C(Cc1cnc[nH]1)N[C@H]1CC[C@@]2(O)[C@H]3Cc4ccc(O)c5c4[C@@]2(CCN3CC2CC2)[C@H]1O5 , state its measured pKi.
8.45

Using the record for O=C(CCc1cc[nH]n1)N[C@@H]1CC[C@@]2(O)[C@H]3Cc4ccc(O)c5c4[C@@]2(CCN3CC2CC2)[C@H]1O5 , state its measured pKi.
8.70

Using the record for O=C(CCc1ncc[nH]1)N[C@H]1CC[C@@]2(O)[C@H]3Cc4ccc(O)c5c4[C@@]2(CCN3CC2CC2)[C@H]1O5 , state its measured pKi.
9.10
